Assay: self-splicing fitness, log relative to wild type (ln ratio); higher = more splicing; Tetrahymena group I intron in knt gene, E. coli kanamycin selection, DiMSum; sequences stand for … in CUCUCU…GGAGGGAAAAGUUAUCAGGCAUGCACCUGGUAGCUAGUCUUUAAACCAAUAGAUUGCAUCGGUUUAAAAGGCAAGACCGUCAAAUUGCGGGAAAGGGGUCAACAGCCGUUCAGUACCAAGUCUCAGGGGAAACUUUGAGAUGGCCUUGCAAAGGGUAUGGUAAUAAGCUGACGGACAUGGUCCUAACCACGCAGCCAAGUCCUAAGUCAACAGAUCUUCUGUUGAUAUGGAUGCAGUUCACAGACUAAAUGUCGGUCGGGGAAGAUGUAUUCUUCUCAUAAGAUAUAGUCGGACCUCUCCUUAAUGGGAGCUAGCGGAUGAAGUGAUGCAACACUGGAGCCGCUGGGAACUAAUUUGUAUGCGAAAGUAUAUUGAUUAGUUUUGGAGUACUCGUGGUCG;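 further: selection with 25 µg/mL kanamycin versus none on LB agar overnight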
Settings: 37 °C
Where self-splicing fitness (ln) equals or exceeds -0.7, the correct label is y; where it does not, the label is n.

Worked cases, answers included:
UCUGAGCAAUAUUACGUAGU ... n
CCGGAGCAAUAUUACGUAUU ... n
CGCUAGCAAUAUUACGACCA ... n
GUGAAGCAAUAUUACGCUGC ... n
UGCCAGCAAUAUUACGUUAA ... n
ACCGAGCAAUAUUACGUGGC ... n

input: Evaluate UAGUAGCAAUAUUACGGAUU : self-splicing fitness (ln) at minimum -0.7?
output: n

input: Evaluate GAUGAGCAAUAUUACGGCAA : self-splicing fitness (ln) at minimum -0.7?
output: n

input: Evaluate AAUUAGCAAUAUUACGAUUA : self-splicing fitness (ln) at minimum -0.7?
output: y

input: Evaluate GGGAAGCAAUAUUACGAUGC : self-splicing fitness (ln) at minimum -0.7?
output: y

input: Evaluate GGUUAGCAAUAUUACGGCGA : self-splicing fitness (ln) at minimum -0.7?
output: y

---

Below, each of the sequences is paired with its reported self-splicing fitness (ln) value.
Experiment: self-splicing fitness, log relative to wild type (ln ratio); higher = more splicing; Tetrahymena group I intron in knt gene, E. coli kanamycin selection, DiMSum; sequences stand for … in CUCUCU…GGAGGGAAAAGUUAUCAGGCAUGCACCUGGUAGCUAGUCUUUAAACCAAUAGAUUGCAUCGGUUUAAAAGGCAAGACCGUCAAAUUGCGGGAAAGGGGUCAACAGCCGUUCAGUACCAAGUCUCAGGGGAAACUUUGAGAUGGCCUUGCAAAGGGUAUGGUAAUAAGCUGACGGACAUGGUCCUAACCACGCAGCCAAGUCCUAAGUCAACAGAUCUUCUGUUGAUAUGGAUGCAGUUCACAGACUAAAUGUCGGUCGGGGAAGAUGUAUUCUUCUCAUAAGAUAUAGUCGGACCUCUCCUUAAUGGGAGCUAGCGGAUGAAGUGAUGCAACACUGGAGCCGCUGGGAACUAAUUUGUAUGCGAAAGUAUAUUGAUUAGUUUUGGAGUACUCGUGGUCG
Settings: 37 °C
Write the value as a bare number.

Completed entries (count: 3):
CUCUAGCAAUAUUACGGCGU ... -2.83
AUUUAGCAAUAUUACGUGCC ... 0.118
CUAUAGCAAUAUUACGCCGG ... -0.422

input: Return the recorded self-splicing fitness (ln) value; entry: UGUCAGCAAUAUUACGAUUC
output: -0.335

input: Return the recorded self-splicing fitness (ln) value; entry: GCCAAGCAAUAUUACGCAGG
output: -2.05

input: Return the recorded self-splicing fitness (ln) value; entry: AUCUAGCAAUAUUACGCUAA
output: -0.871

input: Return the recorded self-splicing fitness (ln) value; entry: CCCGAGCAAUAUUACGAGUA
output: -2.37

input: Return the recorded self-splicing fitness (ln) value; entry: GUUCAGCAAUAUUACGCAAC
output: -1.48

input: Return the recorded self-splicing fitness (ln) value; entry: UCAUAGCAAUAUUACGAGAU
output: -3.29

---

Experiment: self-splicing fitness, log relative to wild type (ln ratio); higher = more splicing; Tetrahymena group I intron in knt gene, E. coli kanamycin selection, DiMSum; sequences stand for … in CUCUCU…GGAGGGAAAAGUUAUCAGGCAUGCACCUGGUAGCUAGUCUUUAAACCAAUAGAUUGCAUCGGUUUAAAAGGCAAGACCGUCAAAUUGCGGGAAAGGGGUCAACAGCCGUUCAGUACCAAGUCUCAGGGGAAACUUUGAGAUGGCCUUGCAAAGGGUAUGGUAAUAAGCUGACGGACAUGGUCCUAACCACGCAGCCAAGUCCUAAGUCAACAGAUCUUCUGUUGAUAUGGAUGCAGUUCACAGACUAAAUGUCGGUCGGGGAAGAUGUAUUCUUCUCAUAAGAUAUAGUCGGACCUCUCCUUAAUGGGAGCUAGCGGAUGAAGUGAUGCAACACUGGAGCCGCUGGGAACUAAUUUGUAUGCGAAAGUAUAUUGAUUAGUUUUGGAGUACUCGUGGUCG
Settings: 37 °C
Where self-splicing fitness (ln) equals or exceeds -2, the correct label is t; where it does not, the label is f.

ACUCAGCAAUAUUACGACAU ... t
UUUGAGCAAUAUUACGCGAA ... t

input: Evaluate UGUUAGCAAUAUUACGGUAC : self-splicing fitness (ln) at minimum -2?
output: f

input: Evaluate UUUUAGCAAUAUUACGUAGG : self-splicing fitness (ln) at minimum -2?
output: t

input: Evaluate ACCGAGCAAUAUUACGUCAA : self-splicing fitness (ln) at minimum -2?
output: f

input: Evaluate CUAAAGCAAUAUUACGUAGU : self-splicing fitness (ln) at minimum -2?
output: f

input: Evaluate AGCUAGCAAUAUUACGGCCG : self-splicing fitness (ln) at minimum -2?
output: t

---

Below, each of the sequences is paired with its reported self-splicing fitness (ln) value.
Experiment: self-splicing fitness, log relative to wild type (ln ratio); higher = more splicing; Tetrahymena group I intron in knt gene, E. coli kanamycin selection, DiMSum; sequences stand for … in CUCUCU…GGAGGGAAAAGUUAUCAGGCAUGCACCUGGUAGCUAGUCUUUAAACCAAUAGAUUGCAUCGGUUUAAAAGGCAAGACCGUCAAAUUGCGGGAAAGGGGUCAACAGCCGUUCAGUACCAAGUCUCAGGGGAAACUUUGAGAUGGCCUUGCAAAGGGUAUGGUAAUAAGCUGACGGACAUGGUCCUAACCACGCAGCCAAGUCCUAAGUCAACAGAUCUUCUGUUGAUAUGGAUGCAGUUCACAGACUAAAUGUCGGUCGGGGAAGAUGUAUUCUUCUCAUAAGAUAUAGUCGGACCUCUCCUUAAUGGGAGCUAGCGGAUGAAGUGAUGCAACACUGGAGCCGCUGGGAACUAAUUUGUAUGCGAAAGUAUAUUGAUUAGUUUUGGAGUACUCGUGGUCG
Conditions: 30 °C
Write the value as a bare number.

CUUUAGCAAUAUUACGCGGC ... -2.41
GACAAGCAAUAUUACGCGAC ... -1.52
GGUUAGCAAUAUUACGGAAA ... -1.53
CCUCAGCAAUAUUACGAUAC ... -3.21
GCGCAGCAAUAUUACGCCAU ... -3.8

input: Return the recorded self-splicing fitness (ln) value; entry: CUUAAGCAAUAUUACGACCG
output: 0.42

input: Return the recorded self-splicing fitness (ln) value; entry: AGUCAGCAAUAUUACGGAGC
output: -2.57

input: Return the recorded self-splicing fitness (ln) value; entry: CGACAGCAAUAUUACGUGUU
output: -2.38

input: Return the recorded self-splicing fitness (ln) value; entry: AUCAAGCAAUAUUACGAUAG
output: -2.36

input: Return the recorded self-splicing fitness (ln) value; entry: CUGAAGCAAUAUUACGGGAU
output: -1.65

input: Return the recorded self-splicing fitness (ln) value; entry: UCAAAGCAAUAUUACGGUCA
output: -0.88

input: Return the recorded self-splicing fitness (ln) value; entry: UUCUAGCAAUAUUACGUCAA
output: -1.21

input: Return the recorded self-splicing fitness (ln) value; entry: UAUUAGCAAUAUUACGAUGG
output: -1.24

---

Test: self-splicing fitness, log relative to wild type (ln ratio); higher = more splicing; Tetrahymena group I intron in knt gene, E. coli kanamycin selection, DiMSum; sequences stand for … in CUCUCU…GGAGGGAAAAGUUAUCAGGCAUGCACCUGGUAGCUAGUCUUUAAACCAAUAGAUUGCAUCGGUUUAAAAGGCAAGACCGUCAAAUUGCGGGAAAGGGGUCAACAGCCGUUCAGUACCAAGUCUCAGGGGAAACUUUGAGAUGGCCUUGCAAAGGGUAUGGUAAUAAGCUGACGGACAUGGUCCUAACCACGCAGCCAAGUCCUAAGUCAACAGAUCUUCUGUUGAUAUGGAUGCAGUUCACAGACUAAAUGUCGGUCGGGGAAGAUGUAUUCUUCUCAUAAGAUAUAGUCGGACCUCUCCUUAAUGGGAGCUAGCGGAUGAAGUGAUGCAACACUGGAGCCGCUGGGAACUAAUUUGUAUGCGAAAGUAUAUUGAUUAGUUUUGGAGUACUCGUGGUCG
Conditions: 30 °C
Where self-splicing fitness (ln) equals or exceeds -2, the correct label is Fulfilled; where it does not, the label is Not fulfilled.

input: Evaluate CUUGAGCAAUAUUACGCUUC : self-splicing fitness (ln) at minimum -2?
output: Not fulfilled

input: Evaluate CUAAAGCAAUAUUACGCGGC : self-splicing fitness (ln) at minimum -2?
output: Fulfilled

input: Evaluate AAGCAGCAAUAUUACGCCUA : self-splicing fitness (ln) at minimum -2?
output: Fulfilled

input: Evaluate GGAUAGCAAUAUUACGACUU : self-splicing fitness (ln) at minimum -2?
output: Fulfilled

input: Evaluate UGCCAGCAAUAUUACGCCGU : self-splicing fitness (ln) at minimum -2?
output: Not fulfilled
